# tested.target: HLA-A*24:03
# assay.procedure: IEDB peptide-MHC binding, purified MHC/competitive/fluorescence; filed as Kd, often an IC50 or EC50 that approximates it; bounds were set here for any values at or beyond the usual limits of such assays
# stated.conditions: source organism: Influenza A virus (A/swine/Italy/1509-6/97(H1N1))
measurement.name: Kd (nM)
Give the number; nM is assumed, so skip it.

Documented Kd of GYDFEREGY : 35.8

###

# tested.target: HLA-B*46:01
# assay.procedure: IEDB peptide-MHC binding, purified MHC/direct/fluorescence; filed as Kd, often an IC50 or EC50 that approximates it; bounds were set here for any values at or beyond the usual limits of such assays
# stated.conditions: source organism: Vibrio parahaemolyticus
pKd: −log10 of the molar value.
measurement.name: pKd

Documented pKd of ALSMGINTV : ≤ 4.70

###

# tested.target: HLA-A*02:16
# assay.procedure: IEDB peptide-MHC binding, purified MHC/direct/fluorescence; filed as Kd, often an IC50 or EC50 that approximates it; bounds were set here for any values at or beyond the usual limits of such assays
# stated.conditions: source organism: Burkholderia mallei ATCC 23344
pKd: −log10 of the molar value.
measurement.name: pKd

Documented pKd of NVMDPMHGA : ≤ 4.70

###

# tested.target: HLA-B*07:02
# assay.procedure: IEDB peptide-MHC binding, purified MHC/direct/fluorescence; filed as Kd, often an IC50 or EC50 that approximates it; bounds were set here for any values at or beyond the usual limits of such assays
# stated.conditions: source organism: Mycobacterium tuberculosis
measurement.name: pKd
pKd (log units): -log10 of the concentration in mol/L.

Documented pKd of LLHDIGKPV : 4.94

###

# tested.target: HLA-B*51:01
# assay.procedure: IEDB peptide-MHC binding, purified MHC/competitive/fluorescence; filed as Kd, often an IC50 or EC50 that approximates it; bounds were set here for any values at or beyond the usual limits of such assays
# stated.conditions: source organism: Vibrio parahaemolyticus K5030
measurement.name: Kd

Documented Kd of LQNFCQHLV : ≥ 20 µM

###

# tested.target: HLA-A*02:01
# assay.procedure: IEDB peptide-MHC binding, purified MHC/competitive/radioactivity; filed as Kd, often an IC50 or EC50 that approximates it; bounds were set here for any values at or beyond the usual limits of such assays
# stated.conditions: source organism: Homo sapiens
Please respond with reported Kd for every item in the list.
Give the number; nM is assumed, so skip it.

Documented Kd of SMEAEMIQL : 39.8

Documented Kd of LMWITQCFL : 78

###

# tested.target: HLA-B*46:01
# assay.procedure: IEDB peptide-MHC binding, purified MHC/direct/fluorescence; filed as Kd, often an IC50 or EC50 that approximates it; bounds were set here for any values at or beyond the usual limits of such assays
# stated.conditions: source organism: Influenza A virus (A/Viet Nam/HN/2004(H5N1))
measurement.name: Kd

Documented Kd of VHFRNQVKI : ≥ 20 µM

###

# tested.target: HLA-B*57:01
# assay.procedure: IEDB peptide-MHC binding, purified MHC/competitive/fluorescence; filed as Kd, often an IC50 or EC50 that approximates it; bounds were set here for any values at or beyond the usual limits of such assays
# stated.conditions: source organism: Brucella suis ATCC 23445
pKd: −log10 of the molar value.
measurement.name: pKd

Documented pKd of ITAVNRYFK : ≤ 4.70

###

# tested.target: HLA-A*11:01
# assay.procedure: IEDB peptide-MHC binding, purified MHC/competitive/radioactivity; bounds were set here for any values at or beyond the usual limits of such assays
# stated.conditions: source organism: Toxoplasma gondii
measurement.name: IC50 (nM)
Give the number; nM is assumed, so skip it.

IC50 value, target or system HLA-A*11:01, for STFWPCLLR : 9.3

###

# tested.target: HLA-A*01:01
# assay.procedure: IEDB peptide-MHC binding, purified MHC/direct/fluorescence; filed as Kd, often an IC50 or EC50 that approximates it; bounds were set here for any values at or beyond the usual limits of such assays
# stated.conditions: source organism: Camelpox virus M-96
Please respond with reported Kd for every item in the list.

Kd value, target or system HLA-A*01:01, for LTFLHTLYK : ≥ 20 µM

Kd value, target or system HLA-A*01:01, for ATNDGLIKK : ≥ 20 µM

Kd value, target or system HLA-A*01:01, for FVHTLLKTY : ≥ 20 µM

###

# tested.target: HLA-A*69:01
# assay.procedure: IEDB peptide-MHC binding, purified MHC/direct/fluorescence; filed as Kd, often an IC50 or EC50 that approximates it; bounds were set here for any values at or beyond the usual limits of such assays
# stated.conditions: source organism: Mammarenavirus juninense
measurement.name: Kd

Documented Kd of QLAKRSEIL : ≥ 20 µM

###

# tested.target: HLA-A*11:01
# assay.procedure: IEDB peptide-MHC binding, purified MHC/competitive/radioactivity; filed as Kd, often an IC50 or EC50 that approximates it; bounds were set here for any values at or beyond the usual limits of such assays
# stated.conditions: source organism: Lassa virus Josiah
Please respond with reported pKd for every item in the list.
pKd (log units): -log10 of the concentration in mol/L.

Documented pKd of MLQKEYMER : 5.87

Documented pKd of KISVQYNLSH : 6.69

Documented pKd of GIPYCNYSK : 6.93

###

# tested.target: HLA-A*01:01
# assay.procedure: IEDB peptide-MHC binding, purified MHC/direct/fluorescence; filed as Kd, often an IC50 or EC50 that approximates it; bounds were set here for any values at or beyond the usual limits of such assays
# stated.conditions: source organism: Mammarenavirus juninense
pKd: −log10 of the molar value.
measurement.name: pKd

Documented pKd of QLAKRSEIL : ≤ 4.70

###

# tested.target: HLA-B*40:01
# assay.procedure: IEDB peptide-MHC binding, purified MHC/competitive/radioactivity; filed as Kd, often an IC50 or EC50 that approximates it; bounds were set here for any values at or beyond the usual limits of such assays
# stated.conditions: source organism: Dengue virus 4 Philippines/H241/1956
Please respond with reported Kd for every item in the list.

Documented Kd of REIPERSWNT : 1.48 µM

Documented Kd of LETLMLVAL : 0.00349 µM

###

# tested.target: HLA-B*39:01
# assay.procedure: IEDB peptide-MHC binding, purified MHC/direct/fluorescence; filed as Kd, often an IC50 or EC50 that approximates it; bounds were set here for any values at or beyond the usual limits of such assays
# stated.conditions: source organism: Orthohantavirus andesense
measurement.name: Kd (nM)
Give the number; nM is assumed, so skip it.

Documented Kd of TRDHVNLVL : 45.7

###

# tested.target: HLA-A*02:16
# assay.procedure: IEDB peptide-MHC binding, purified MHC/competitive/fluorescence; filed as Kd, often an IC50 or EC50 that approximates it; bounds were set here for any values at or beyond the usual limits of such assays
# stated.conditions: source organism: Human immunodeficiency virus 1
measurement.name: pKd
pKd (log units): -log10 of the concentration in mol/L.

pKd value, target or system HLA-A*02:16, for ALVEMGHHV : 8.51

pKd value, target or system HLA-A*02:16, for KMGKAGYVT : 6.58

###

# tested.target: HLA-A*03:01
# assay.procedure: IEDB peptide-MHC binding, purified MHC/direct/fluorescence; filed as Kd, often an IC50 or EC50 that approximates it; bounds were set here for any values at or beyond the usual limits of such assays
# stated.conditions: source organism: Influenza A virus (A/Viet Nam/HN/2004(H5N1))
measurement.name: Kd

Documented Kd of VHFRNQVKI : ≥ 20 µM

###

Please respond with reported Kd for every item in the list.
# tested.target: HLA-B*07:02
# assay.procedure: IEDB peptide-MHC binding, purified MHC/competitive/radioactivity; filed as Kd, often an IC50 or EC50 that approximates it; bounds were set here for any values at or beyond the usual limits of such assays
# stated.conditions: source organism: Vaccinia virus WR
Give the number; µM is assumed, so skip it.

Documented Kd of TPLISFFGLF : 1.14

Documented Kd of IPIGMQFDKV : 4.91

Documented Kd of VPEFAKQYV : 0.128

Documented Kd of KPIMSMGDII : 0.00649

Documented Kd of CTFMIITSTK : 3.05

Documented Kd of MPTDMLKLF : 0.0178

###

# tested.target: HLA-A*02:12
# assay.procedure: IEDB peptide-MHC binding, purified MHC/competitive/fluorescence; filed as Kd, often an IC50 or EC50 that approximates it; bounds were set here for any values at or beyond the usual limits of such assays
# stated.conditions: source organism: Escherichia coli HS
measurement.name: Kd

Documented Kd of ISLWGSLLK : ≥ 20 µM

###

# tested.target: HLA-B*15:17
# assay.procedure: IEDB peptide-MHC binding, purified MHC/competitive/fluorescence; filed as Kd, often an IC50 or EC50 that approximates it; bounds were set here for any values at or beyond the usual limits of such assays
# stated.conditions: source organism: Homo sapiens
pKd: −log10 of the molar value.
measurement.name: pKd

Documented pKd of RTDNGGWAH : ≤ 4.70
